molecular target: CRLR + RAMP1 (CGRP receptor) (Homo sapiens, UniProt O60894+Q16602); construct: RAMP plasmid gift of Dr Patrick Sexton; test: Live cell cAMP accumulation (GloSensor), COS-7 cells transfected with CRLR + RAMP1; settings: EC50 of ATP for potentiation of CGRP signaling, ATP + CGRP 10 nM, RAMP1, COS-7; 4-parameter fit; n = 3
Sequence (Q16602 23-461): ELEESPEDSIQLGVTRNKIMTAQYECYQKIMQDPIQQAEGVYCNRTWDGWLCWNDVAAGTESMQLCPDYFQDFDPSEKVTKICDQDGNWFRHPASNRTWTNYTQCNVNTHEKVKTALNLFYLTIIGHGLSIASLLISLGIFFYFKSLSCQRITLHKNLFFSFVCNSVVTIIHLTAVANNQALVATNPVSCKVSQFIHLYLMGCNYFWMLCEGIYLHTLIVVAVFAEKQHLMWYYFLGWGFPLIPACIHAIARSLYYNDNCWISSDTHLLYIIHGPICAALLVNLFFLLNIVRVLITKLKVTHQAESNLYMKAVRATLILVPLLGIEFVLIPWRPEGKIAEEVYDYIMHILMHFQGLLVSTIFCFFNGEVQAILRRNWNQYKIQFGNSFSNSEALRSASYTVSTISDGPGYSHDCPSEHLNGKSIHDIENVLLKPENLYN
Sequence (O60894 27-148): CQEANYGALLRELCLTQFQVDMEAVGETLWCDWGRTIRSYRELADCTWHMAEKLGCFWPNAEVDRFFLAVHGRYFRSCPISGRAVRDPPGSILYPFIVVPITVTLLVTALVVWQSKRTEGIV
METRIC: pEC50
Conceptually, pEC50 converts a concentration in mol/L into minus its log10.

Query block: Can you look up the measured pEC50 of Nc1ncnc2c1ncn2[C@@H]1O[C@H](COP(=O)(O)OP(=O)(O)OP(=O)(O)O)[C@@H](O)[C@H]1O [ATP, Adenosine 5'-triphosphate] for me?
Result block: 3.30
